# System: 324938-238-R-J1-PDC complex spheroid growth, % test/control;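 further: spheroids exposed to agents for seven days before viability read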
# assay details: Anticancer human tumor 324938-238-R-J1-PDC patient-derived bladder carcinoma cell line growth inhibition [AhR]
# measurement setup: curve of first compound; second compound 3.16 µM
experimental readout: pIC50
Scale note: pIC50 = -log10(concentration in M).

Any idea what its pIC50 is? The compound is COc1cc(C2c3cc4c(cc3C(OC3OC5COC(C)OC5C(O)C3O)C3COC(=O)C23)OCO4)cc(OC)c1O (centres undefined) + Cc1ccccc1N=Nc1ccc(NC(=O)c2ccnn2C)c(C)c1
6.60

Then CC1COCCN1c1cc(C2(S(C)(=N)=O)CC2)nc(-c2ccnc3[nH]ccc23)n1 (centres undefined) + Cc1ccccc1N=Nc1ccc(NC(=O)c2ccnn2C)c(C)c1 ?
5.34

Can you check CC[C@@]1(O)C(=O)OCc2c1cc1n(c2=O)Cc2cc3c(CN(C)C)c(O)ccc3nc2-1 + Cc1ccccc1N=Nc1ccc(NC(=O)c2ccnn2C)c(C)c1 next?
7.77

Okay, and Nc1ncn(C2CC(O)C(CO)S2)c(=O)n1 (centres undefined) + CC(CO)NC(=O)c1cc(-c2ccc(Cl)cc2)nn(-c2cnn(C)c2)c1=O ?
6.86

Thanks! And O=C(C=Cc1cccc(S(=O)(=O)Nc2ccccc2)c1)NO + CC(CO)NC(=O)c1cc(-c2ccc(Cl)cc2)nn(-c2cnn(C)c2)c1=O ?
5.47

Would you kindly repeat that for NS(=O)(=O)OCC1CC(n2ccc3c(NC4CCc5ccccc54)ncnc32)CC1O (centres undefined) + CC(CO)NC(=O)c1cc(-c2ccc(Cl)cc2)nn(-c2cnn(C)c2)c1=O ?
6.35

What about this compound? CCc1c2c(nc3ccc(O)cc13)-c1cc3c(c(=O)n1C2)COC(=O)[C@]3(O)CC + Cc1cncc(-c2nc(NCCc3c[nH]c4ccccc34)c3ncn(C(C)C)c3n2)c1
6.69

Please give the result for CC1COCCN1c1cc(-c2ccnn2C)c2ccnc(-c3ccn[nH]3)c2n1 (centres undefined) + CC(CO)NC(=O)c1cc(-c2ccc(Cl)cc2)nn(-c2cnn(C)c2)c1=O too.
7.44

Repeat for the following compound: CC(C)CC(NC(=O)C(Cc1ccccc1)NC(=O)c1cnccn1)B(O)O (centres undefined) + CC(CO)NC(=O)c1cc(-c2ccc(Cl)cc2)nn(-c2cnn(C)c2)c1=O
8.85

// query: CCc1c2c(nc3ccc(O)cc13)-c1cc3c(c(=O)n1C2)COC(=O)[C@]3(O)CC + Cc1ccccc1N=Nc1ccc(NC(=O)c2ccnn2C)c(C)c1
8.90

Next compound up: NS(=O)(=O)OCC1CC(n2ccc3c(NC4CCc5ccccc54)ncnc32)CC1O (centres undefined) + Cc1ccccc1N=Nc1ccc(NC(=O)c2ccnn2C)c(C)c1
6.06

Now the same for O=C(C=Cn1cnc(-c2cc(C(F)(F)F)cc(C(F)(F)F)c2)n1)NNc1cnccn1 + CC(CO)NC(=O)c1cc(-c2ccc(Cl)cc2)nn(-c2cnn(C)c2)c1=O
7.02

Now consider COc1ccc([C@@H](O)c2cc(-c3ncnc4cc(N5CCOCC5)ccc34)c(F)cc2Cl)nn1 + Cc1ccccc1N=Nc1ccc(NC(=O)c2ccnn2C)c(C)c1 .
5.05

Let us now turn to O=C(C=Cn1cnc(-c2cc(C(F)(F)F)cc(C(F)(F)F)c2)n1)NNc1cnccn1 + Cc1cncc(-c2nc(NCCc3c[nH]c4ccccc34)c3ncn(C(C)C)c3n2)c1
6.13

Entry COc1cc(C2c3cc4c(cc3C(OC3OC5COC(C)OC5C(O)C3O)C3COC(=O)C23)OCO4)cc(OC)c1O (centres undefined) + CC(CO)NC(=O)c1cc(-c2ccc(Cl)cc2)nn(-c2cnn(C)c2)c1=O please
6.61
